Values compiled from PubChem BioAssay (NCATS).

System: WaGa
test: qHTS assay to identify novel small-molecules to repurpose for Merkel cell carcinoma treatment (AID 1296009); note: nearly all actives have a fitted effect of over 60% in size
condition set: MCC and control cell lines, CellTiter-Glo viability, 72 h; series mostly up to 46 µM
Inconclusive results are not listed. Activity calls are given as the source filed them. Calls come from the whole dose curve; as a rule, active = well fitted inhibition curve with a large enough effect; inconclusive = small, poorly fitted or top-dose-only effect; inactive = flat fitted curve, though single readings scatter.
Use one of these outcomes when replying: active, inactive

| chem smiles | measurement target | assigned category |
| --- | --- | --- |
| Nc1nc(F)nc2c1ncn2[C@@H]1O[C@H](COP(=O)(O)O)[C@@H](O)[C@H]1O | WaGa | active |
| CC[C@H]1OC(=O)[C@H](C)C(=O)[C@H](C)[C@@H](O[C@H]2O[C@H](C)C[C@H](N(C)C)[C@@H]2O)[C@](C)(OC)C[C@@H](C)C(=O)[C@H](C)[C@H]2N(CCCCn3cnc(-c4cccnc4)c3)C(=O)O[C@]12C | WaGa | inactive |
| COc1cc2ncnc(-n3nc(-c4ccccn4)nc3N)c2cc1OC | WaGa | inactive |

Shifting focus to the compound that follows.
Exercise: Recorded call for "Cc1ccc(F)c(NC(=O)Nc2ccc(-c3cccc4[nH]nc(N)c34)cc2)c1" ?
Key: inactive

====

Test system: MKL-2
test: qHTS assay to identify novel small-molecules to repurpose for Merkel cell carcinoma treatment (AID 1296009); note: nearly all actives have a fitted effect of over 60% in size
condition set: MCC and control cell lines, CellTiter-Glo viability, 72 h; series mostly up to 46 µM
Results filed as inconclusive are left out. The source made the active and inactive calls. The call rests on the fitted dose curve; in most records, active means well fitted inhibition curve with a large enough effect; inconclusive means small, poorly fitted or top-dose-only effect; inactive means flat fitted curve, though single readings scatter.
Please reply with one of these outcomes: true = active, false = inactive

See these solved cases before continuing.
| chem smiles | assigned category |
| --- | --- |
| COc1ncc(-c2ccc3nccc(-c4ccnnc4)c3c2)cc1NS(=O)(=O)c1ccc(F)cc1F | true |
| Cc1ccc(/C=N/NC(=O)c2ccccc2Oc2ccccc2)o1 | false |
| COc1cc(N2CCC(N3CCN(C)CC3)CC2)ccc1Nc1ncnc(Nc2ccccc2S(=O)(=O)C(C)C)n1 | false |
| COC(=O)[C@@H]1[C@H]2C[C@H]3c4[nH]c5ccccc5c4CCN3C[C@@H]2CC[C@@H]1O | false |

Moving on to the next compound.
Exercise: Record lookup: outcome of this test for "O=c1cc(-c2cccc3c2Sc2ccccc2S3)oc(N2CCOCC2)c1" ?
Key: false

====

test: Quantitative High-Throughput drug screen in 47 multiple myeloma cell lines against the NCATS MIPE library collection: ARD_JJKsccE7 cell viability assay (AID 1918929)
condition set: ARD myeloma cell line viability, CellTiter-Glo, 48 h; series mostly up to 45.8 µM
Inconclusive results are not listed. Calls of active or inactive are those of the source. Calls come from the whole dose curve; as a rule, active = well fitted cell-killing curve with a large enough effect; inconclusive = small, poorly fitted or top-dose-only effect, or effect the other way; inactive = no such curve, though single readings can be large or run the other way.
In this exercise, the only acceptable responses are active, inactive

| compound | assigned category |
| --- | --- |
| COC(=O)N[C@H](C(=O)N1CCC[C@@H]1c1ncc(-c2ccc(-c3ccc(-c4cnc([C@@H]5CCCN5C(=O)[C@@H](NC(=O)OC)C(C)C)[nH]4)cc3)cc2)[nH]1)C(C)C | active |
| OC[C@H]1O[C@@H](n2cnc3c2NC=NC[C@@H]3O)C[C@H]1O | inactive |
| COc1ccc(-c2cc(=O)c3c(O)cc(O)cc3o2)cc1O | active |
| NC(=O)c1ccc2nc(-c3ccc(Oc4ccc(Cl)cc4)cc3)[nH]c2c1 | active |
| Nc1ncnc2c1nc(Cl)n2[C@@H]1O[C@H](CO)[C@@H](O)[C@@H]1O | active |

Exercise: What call does the record list for Cc1ccc(C(C)(O)c2nc3ccccc3s2)c(C)c1 (stereo not given) ?
Key: inactive

Exercise: Please indicate how the test categorized "CN[C@@H](C)C(=O)N[C@H]1CN(C(=O)CC(C)C)CC[C@H]2CC[C@@H](C(=O)NC(c3ccccc3)c3ccccc3)N2C1=O" .
Key: active

Exercise: Tell me the assay call for O=C(O)C(O)Cc1ccc(O)c(O)c1 (stereo not given) please.
Key: inactive

Exercise: // outcome(item) with item = "CC#CCn1c(N2CCC[C@@H](N)C2)nc2c1c(=O)n(Cc1nc(C)c3ccccc3n1)c(=O)n2C"
Key: inactive

Exercise: Called result for "COc1ccc(-c2coc3cc(O)ccc3c2=O)cc1"
Key: inactive

Exercise: Look up the recorded call for "O=c1c(-c2ccc(O)cc2)coc2cc(O[C@@H]3O[C@H](CO)[C@H](O)[C@H](O)[C@H]3O)ccc12" in this test.
Key: inactive

Exercise: For "O=C(O)c1ccccc1C(=O)Nc1ccc(-c2ccccc2)cc1" , what call appears in the results of this test?
Key: inactive

Exercise: Check the results log: what was the call for CC(C(=O)O)c1ccc(-c2ccccc2)c(F)c1 (stereo not given) ?
Key: inactive
